B1: VPS39 (parent)
chain: ITEEKVCMVCKKKIGNSAFARYPN

- Variants of: B1
- Test protocol: protein stability index of a GFP-peptide fusion (GPS, HEK-293T) (PSI 1-6); higher = more stable;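 note: lentivirally expressed fusions sorted by FACS into six bins by GFP to DsRed ratio, PSI derived from sequencing read proportions per bin multiplied by bin number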
- Experimental conditions: c terminus: a fixed tail appended

[
  {
    "Variant id": "K11P",
    "protein stability index": 2.76
  },
  {
    "Variant id": "A20P",
    "protein stability index": 2.62
  },
  {
    "Variant id": "E4P",
    "protein stability index": 2.39
  },
  {
    "Variant id": "A18P",
    "protein stability index": 2.19
  },
  {
    "Variant id": "E3V",
    "protein stability index": 1.82
  },
  {
    "Variant id": "S17Y",
    "protein stability index": 2.08
  },
  {
    "Variant id": "E3F",
    "protein stability index": 1.51
  },
  {
    "Variant id": "G15K",
    "protein stability index": 2.55
  },
  {
    "Variant id": "I14M",
    "protein stability index": 3
  },
  {
    "Variant id": "A20E",
    "protein stability index": 2.11
  },
  {
    "Variant id": "F19D",
    "protein stability index": 4.58
  },
  {
    "Variant id": "P23Y",
    "protein stability index": 1.74
  },
  {
    "Variant id": "R21P",
    "protein stability index": 3.02
  },
  {
    "Variant id": "R21D",
    "protein stability index": 4.02
  },
  {
    "Variant id": "I1E",
    "protein stability index": 3.18
  },
  {
    "Variant id": "N24K",
    "protein stability index": 2.24
  },
  {
    "Variant id": "P23I",
    "protein stability index": 2.63
  },
  {
    "Variant id": "C10M",
    "protein stability index": 2.94
  },
  {
    "Variant id": "M8S",
    "protein stability index": 3.29
  },
  {
    "Variant id": "V6I",
    "protein stability index": 3.18
  },
  {
    "Variant id": "A18L",
    "protein stability index": 2.4
  },
  {
    "Variant id": "E3Q",
    "protein stability index": 2.53
  },
  {
    "Variant id": "F19P",
    "protein stability index": 3.14
  },
  {
    "Variant id": "I14W",
    "protein stability index": 2.1
  },
  {
    "Variant id": "S17H",
    "protein stability index": 2.54
  },
  {
    "Variant id": "N16G",
    "protein stability index": 3.01
  },
  {
    "Variant id": "C10W",
    "protein stability index": 2.59
  },
  {
    "Variant id": "K13F",
    "protein stability index": 2.28
  },
  {
    "Variant id": "Y22H",
    "protein stability index": 2.77
  },
  {
    "Variant id": "V9S",
    "protein stability index": 3.35
  },
  {
    "Variant id": "Y22E",
    "protein stability index": 3.55
  },
  {
    "Variant id": "K11D",
    "protein stability index": 3.21
  },
  {
    "Variant id": "P23E",
    "protein stability index": 3.38
  },
  {
    "Variant id": "I1R",
    "protein stability index": 2.13
  },
  {
    "Variant id": "C10V",
    "protein stability index": 2.84
  },
  {
    "Variant id": "I14P",
    "protein stability index": 2.64
  },
  {
    "Variant id": "N16I",
    "protein stability index": 2.02
  },
  {
    "Variant id": "K5W",
    "protein stability index": 2.28
  },
  {
    "Variant id": "K12R",
    "protein stability index": 1.83
  },
  {
    "Variant id": "C7D",
    "protein stability index": 4.19
  },
  {
    "Variant id": "E3G",
    "protein stability index": 2.13
  },
  {
    "Variant id": "C7I",
    "protein stability index": 2.2
  },
  {
    "Variant id": "V9A",
    "protein stability index": 3.05
  },
  {
    "Variant id": "K12V",
    "protein stability index": 1.74
  },
  {
    "Variant id": "E3L",
    "protein stability index": 1.91
  },
  {
    "Variant id": "K5T",
    "protein stability index": 2.09
  }
]

Recorded values, source the supplement of paper PMC10567573.
